Recorded values, source paper PMC11589570.

molecular target: GABARAPL2 (Homo sapiens, UniProt P60520); conditions: residue K20; GABARAPL2:ligand molar ratio 1:2
Sequence (P60520 whole entry): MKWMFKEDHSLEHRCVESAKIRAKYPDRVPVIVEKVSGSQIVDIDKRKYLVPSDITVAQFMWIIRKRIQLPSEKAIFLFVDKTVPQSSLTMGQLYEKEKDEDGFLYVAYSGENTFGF

{"columns": ["molecular_string", "study_target", "CSP"],
 "data": [
  ["O=C1Nc2ccc(I)cc2C1=Cc1cc(Br)c(O)c(Br)c1", "GABARAPL2 (Homo sapiens, UniProt P60520)", "0.058 ppm"],
  ["O=C1Nc2ccc(Br)cc2C1=Cc1cc(O)c(O)c(Br)c1", "GABARAPL2 (Homo sapiens, UniProt P60520)", "0.015 ppm"],
  ["Cc1ccc(C(=O)N(CCCN)[C@@H](c2nc3cc(Cl)ccc3c(=O)n2Cc2ccccc2)C(C)C)cc1", "GABARAPL2 (Homo sapiens, UniProt P60520)", "0.000707 ppm"],
  ["O=c1cc(-c2ccccc2)c2c(O)cc(O)cc2o1", "GABARAPL2 (Homo sapiens, UniProt P60520)", "0.009 ppm"]
]}
